test system: RARg:RXRa (NR concentration 270 nM, RXRa partner concentration 90 nM); test: PBM binding z-score (relative to random genomic background probes); higher = stronger binding; sequences stand for … in GC…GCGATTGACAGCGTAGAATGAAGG
outcome_measure: PBM binding z-score

sequence_code=GATACAGGGTCCGCTAGAGGCCAGAGTATGGAAA system_name="RARg:RXRa (NR concentration 270 nM, RXRa partner concentration 90 nM)" endpoint_value=0.628
sequence_code=TAGCCTAGGTCATGCGCCAGTATACCACGCGAAC system_name="RARg:RXRa (NR concentration 270 nM, RXRa partner concentration 90 nM)" endpoint_value=3.96
sequence_code=TCATATAGGTACTACAGGTGAAAGTCGGCATCTA system_name="RARg:RXRa (NR concentration 270 nM, RXRa partner concentration 90 nM)" endpoint_value=0.654
sequence_code=CAAACTAGGTCAAAGGTCTAAGTCGAGCCAACCA system_name="RARg:RXRa (NR concentration 270 nM, RXRa partner concentration 90 nM)" endpoint_value=4.76
sequence_code=CCTACTAGGCCAAGGTCATTGATCAGTCAAAGCA system_name="RARg:RXRa (NR concentration 270 nM, RXRa partner concentration 90 nM)" endpoint_value=3.86
sequence_code=CGTCCAAGGTCAAGGTCAGTTAAAGAGACTCGAA system_name="RARg:RXRa (NR concentration 270 nM, RXRa partner concentration 90 nM)" endpoint_value=6.92
sequence_code=TATACAGCGTCAAAGGCCAGAGTACGAATGTCGA system_name="RARg:RXRa (NR concentration 270 nM, RXRa partner concentration 90 nM)" endpoint_value=0.284
sequence_code=AGAATGACGTTATACGTAGATCAGGGAAGAAAGT system_name="RARg:RXRa (NR concentration 270 nM, RXRa partner concentration 90 nM)" endpoint_value=-0.123
sequence_code=TCTTGTAGATCAATAGAGATTAAGAAAGTGCGCT system_name="RARg:RXRa (NR concentration 270 nM, RXRa partner concentration 90 nM)" endpoint_value=0.0195
sequence_code=CAAACTAGGTCAAGAGGTCAAAGTCCGCTTCCCG system_name="RARg:RXRa (NR concentration 270 nM, RXRa partner concentration 90 nM)" endpoint_value=8.2
sequence_code=CGACCTAGGTCATCCAGGACAGTGAATACATTGA system_name="RARg:RXRa (NR concentration 270 nM, RXRa partner concentration 90 nM)" endpoint_value=4.75
sequence_code=GGAACGAGGGCAAATTTGATAGCATCTGTCGACG system_name="RARg:RXRa (NR concentration 270 nM, RXRa partner concentration 90 nM)" endpoint_value=1.06

* * *

test system: PPARg:RXRa (NR concentration 180 nM, RXRa partner concentration 90 nM); experiment: PBM binding z-score (relative to random genomic background probes); higher = stronger binding; sequences stand for … in GC…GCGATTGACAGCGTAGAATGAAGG
Kindly note that classification relies on PBM binding z-score with these boundaries: bucket 1 = under 1, bucket 2 = from 1 up to 3, bucket 3 = 3 and over

sequence_code=ACAGACAGATGATGAAGGTAACTCAGGCTATCAT category="bucket 1"
sequence_code=CCTGCTAGGTCAGGGTCAGCTAATCTACAGTATG category="bucket 2"
sequence_code=TAGCCTTGGTCAGATCGGGCCAGTATACGCTATA category="bucket 1"
sequence_code=ACTAGTTGGTCAGCCGAGGTCACACACAATTCGG category="bucket 2"
sequence_code=CTACCAAGGTGAACAACGTCGTTGATTACTATTC category="bucket 1"
sequence_code=ATCTCTAGGTAAATATAGTTCAGTGAATGCAAAT category="bucket 2"
sequence_code=CAAACTAGGTCAAAGGTCGAAGTCGAGCCAACCA category="bucket 3"
sequence_code=ATATGTAGGTAATCGGGTCATTCAGTTTGCGCAT category="bucket 3"
sequence_code=CGAACTAGGTCAGATCAGGACAGTGAAGGATGAT category="bucket 3"
sequence_code=ATCGAAAGGTCGACGAGGTGAGTATTCACCGTTT category="bucket 2"
sequence_code=CCGAGTAGGTTATTGGGCATTCAGGCAACGGTGA category="bucket 2"
